# experimentSummary: Pharmacokinetics, multiple ascending dose
# Assay type: in vivo, human
# reportedConditions: 180 mg OD, day 1, geometric mean (%CV)
reportedProperty: Cmax (nM)

Cc1cc(-c2ccc(C(=O)[C@@H]3CCCC[C@H]3C(=O)Nc3cnn4c3C(=O)NCC4)cc2)n[nH]1 [AZD5718] :: 847

###

# experimentSummary: Pharmacokinetics, multiple ascending dose
# Format: in vivo, human
# reportedConditions: 600 mg OD, day 1, geometric mean (%CV)
reportedProperty: Cmax

Cc1cc(-c2ccc(C(=O)[C@@H]3CCCC[C@H]3C(=O)Nc3cnn4c3C(=O)NCC4)cc2)n[nH]1 :: 4.93 µM

###

# experimentSummary: Pharmacokinetics, multiple ascending dose
# Format: in vivo, human
# reportedConditions: 180 mg OD, day 10, geometric mean (%CV)
reportedProperty: Cmax (nM)

Cc1cc(-c2ccc(C(=O)[C@@H]3CCCC[C@H]3C(=O)Nc3cnn4c3C(=O)NCC4)cc2)n[nH]1 :: 1240

###

# experimentSummary: Pharmacokinetics, multiple ascending dose
# Assay type: in vivo, human
# reportedConditions: 60 mg OD, day 1, oral amorphous suspension, N = 6, geometric mean (%CV)
reportedProperty: Cmax (nM)

Cc1cc(-c2ccc(C(=O)[C@@H]3CCCC[C@H]3C(=O)Nc3cnn4c3C(=O)NCC4)cc2)n[nH]1 [AZD5718] :: 167

###

# experimentSummary: Pharmacokinetics, multiple ascending dose
# Type: in vivo, human
# reportedConditions: 60 mg OD, day 10, geometric mean (%CV)
reportedProperty: Cmax

Cc1cc(-c2ccc(C(=O)[C@@H]3CCCC[C@H]3C(=O)Nc3cnn4c3C(=O)NCC4)cc2)n[nH]1 [AZD5718] :: 220 nM

###

# experimentSummary: Pharmacokinetics, single ascending dose
# Assay type: in vivo, human
# reportedConditions: 1,200 mg single dose, geometric mean (%CV)
reportedProperty: Cmax (µM)

Cc1cc(-c2ccc(C(=O)[C@@H]3CCCC[C@H]3C(=O)Nc3cnn4c3C(=O)NCC4)cc2)n[nH]1 :: 6.88

###

# experimentSummary: Pharmacokinetics, multiple ascending dose
# Assay type: in vivo, human
# reportedConditions: 600 mg OD, day 10, geometric mean (%CV)
reportedProperty: Cmax (µM)

Cc1cc(-c2ccc(C(=O)[C@@H]3CCCC[C@H]3C(=O)Nc3cnn4c3C(=O)NCC4)cc2)n[nH]1 :: 5.69
